Origin of measurements: a melting point compilation (Tetko et al.)

Overview of reported melting point across a group of compounds:

Completed entries (count: 5):
                                compound  observed_result
0  CCOC(=O)c1cn[nH]c1NC(=O)Nc1ccc(Cl)cc1    260 to 261 °C
1               O=C(Cl)c1ccccc1Oc1ccccc1      37 to 39 °C
2         CN(C)c1ccc(N)c([N+](=O)[O-])c1    119 to 124 °C
3                    Cc1cc(Cl)c2ccccc2n1      39 to 41 °C
4                    COc1c(F)cc(CBr)cc1F            41 °C

Q. Which melting point value belongs to O=CC(C=O)c1ccc(Cl)cc1[N+](=O)[O-] ?
A. 137 to 143 °C

Q. Again, but for Cc1c(C)c(C)c(C(=O)c2ccccc2C(=O)O)c(C)c1C
A. 278 to 282 °C

Q. Again, but for c1ccc2c(c1)CCc1ccccc1N2C1CN2CCC1CC2 (stereo not drawn)
A. 150 °C

Q. Again, but for CCOC(=O)Nc1ccc(Cl)cc1
A. 64 to 66 °C

Q. Again, but for O=C(O)c1cccc(N2CCOCC2)n1
A. 127 to 129 °C

----------
OBSERVED PROPERTY: melting point

Q. Which melting point value belongs to Cc1ccc(C)n1-c1ccsc1C(=O)NN ?
A. 135 to 136 °C

Q. Again, but for N[C@H](CO)[C@H](O)c1ccc([N+](=O)[O-])cc1
A. 160 to 166 °C

Q. Again, but for NS(=O)(=O)c1ccc(F)c2nonc12
A. 144 to 146 °C

Q. Again, but for N#CC1(O)CN2CCC1CC2 (stereo unspecified)
A. 156 to 159 °C

Q. Again, but for Cc1cc(Oc2ccc(C(F)(F)F)cc2[N+](=O)[O-])ccc1Cl
A. 57 to 59 °C

Q. Again, but for O=C(N[C@@H](Cc1ccccc1)C(=O)Oc1c(F)c(F)c(F)c(F)c1F)OCC1c2ccccc2-c2ccccc21
A. 151 to 152 °C

----------
OBSERVED PROPERTY: melting point

>>> df
                                   compound  observed_result
0                    c1ccc2c(c1)OCCOCCOCCO2      48 to 50 °C
1  O=[N+]([O-])c1cccc(S(=O)(=O)OCC2CO2)c1 (stereo unspecified)      61 to 65 °C
2                  O=C=Nc1ccc(OC2CCOCC2)nc1  68.5 to 70.5 °C
3  COc1ccc2c(-c3ccccc3)c(-c3ccccc3)[nH]c2c1    210 to 214 °C
4                          O=Cc1cn2ccccc2n1      78 to 79 °C
5                              CNS(=O)(=O)O    189 to 193 °C
6                           Cc1ccc(C#N)cc1C      67 to 69 °C
7                            CC(=NO)c1cccs1    113 to 114 °C

Q. Which melting point value belongs to O=C(O)Cc1ccccc1C(F)(F)F ?
A. 100 to 102 °C

Q. Again, but for Cc1nc(-c2ccc(C(F)(F)F)cc2)sc1CO
A. 119 to 122 °C

Q. Again, but for O=C(O)CCC(=O)c1cccs1
A. 121 to 122 °C

----------
Overview of reported melting point across a group of compounds:

Completed entries (count: 3):
>>> df
                                smiles_code  observed_result
0        Cc1cccn2c(=O)c(C(=O)c3ccccc3)cnc12    146 to 147 °C
1                    O=C(CBr)c1ccc(F)c(F)c1      28 to 30 °C
2  O=[N+]([O-])c1cc(/C=N\c2ccccc2)ccc1/C=N/c1ccccc1    133 to 134 °C

Q. Which melting point value belongs to Cn1cnc([N+](=O)[O-])c1Cl ?
A. 146 to 150 °C

Q. Again, but for N#Cc1c(C(F)(F)F)cc(Nc2cccc([N+](=O)[O-])c2)nc1Cl
A. 276 to 279 °C

----------
Overview of reported melting point across a group of compounds:

Q. Which melting point value belongs to CC(=O)c1ccc(-c2cccs2)s1 ?
A. 109 to 114 °C

Q. Again, but for CSc1nc2ccccc2c(=O)[nH]1
A. 223 to 225 °C

Q. Again, but for NN=C(/C(=N/N)c1ccccc1)c1cccc2ccccc12
A. 217 to 218 °C

Q. Again, but for O=C(O)c1ccc(N2CCOCC2)nc1
A. 256 to 257 °C

----------
OBSERVED PROPERTY: melting point

Completed entries (count: 5):
>>> df
                                   compound  observed_result
0  O=C(N[C@@H](C(=O)O)c1ccccc1)OCC(Cl)(Cl)Cl    141 to 142 °C
1              COC(=O)c1ccc(C(=O)OC)c(Br)c1      52 to 54 °C
2                     N#CCCN(CCC#N)c1ccccc1      80 to 88 °C
3                 O=C(OCc1ccccc1)OCc1ccccc1      29 to 33 °C
4  CC1(C)OC2C(CO)OC(n3ccc(=O)[nH]c3=O)C2O1 (centres undefined)    163 to 166 °C

Q. Which melting point value belongs to Cc1occc1C(=O)O ?
A. 102 to 105 °C

Q. Again, but for COc1ccc(C=C(Oc2ccc(Cl)cc2)c2nc3ccccc3s2)cc1
A. 137 to 139 °C

Q. Again, but for CC(=O)C1(O)CCC2(C)C(CCC3C2CCC2(C)C3CCC23OCCO3)C1 (centres undefined)
A. 182 to 190 °C

Q. Again, but for CC(=O)CC[C@H]1[C@@H](C#N)[C@H](C(C)C)CC[C@@]1(C)OC(C)=O
A. 106 to 109 °C

----------
Overview of reported melting point across a group of compounds:

Completed entries (count: 2):
                            compound  observed_property  observed_result
0   O=C(Cl)c1csc(-c2ccc3c(c2)CCO3)n1      melting point    133 to 135 °C
1  O=C(O)c1sc(-c2ccccc2)nc1-c1ccccc1      melting point    212 to 216 °C

Q. Which melting point value belongs to O=C1OC(c2ccccc2)=NC1=Cc1ccc(-c2ccccc2)o1 ?
A. 142 to 143 °C

Q. Again, but for c1ccc(-c2nc3ccccc3[nH]2)cc1
A. 293 to 296 °C

Q. Again, but for CCOC(=O)c1cn(-c2ccc(F)cc2F)c2nc(Cl)c(F)cc2c1=O
A. 212 to 215 °C

Q. Again, but for NC(=S)Nc1ccc(Cl)cc1
A. 177 to 181 °C

Q. Again, but for Cc1ccccc1C(N)=S
A. 142 to 143 °C

Q. Again, but for N#CC1CC2C=CC1C2 (stereo unspecified)
A. 13 °C

Q. Again, but for Cc1ccc(-c2cc(NN=c3c(C(F)(F)F)nc4ccccc4[nH]c3=O)[nH]n2)cc1
A. 135 °C

Q. Again, but for CNC(=O)Oc1cccc2ccccc12
A. 142 °C

Q. Again, but for COc1ccc([P+]2([S-])Nn3c(nnc3C(F)(F)F)S2)cc1 (stereo unspecified)
A. 211 °C

Q. Again, but for NC(CS(=O)(=O)c1ccc(F)cc1)=NO
A. 180 to 183 °C

Q. Again, but for O=Cc1c[nH]c2c(C(=O)O)cccc12
A. 308 to 309 °C

----------
Overview of reported melting point across a group of compounds:

Completed entries (count: 3):
                            smiles_code  observed_property  observed_result
0              O=[N+]([O-])c1cc(O)ccc1I      melting point    153 to 159 °C
1                       OCCCC(Cl)(Cl)CO      melting point      40 to 42 °C
2  Cc1ccc(C(=O)C=Cc2ccc(-c3ccccc3)o2)o1      melting point    122 to 123 °C

Q. Which melting point value belongs to Cc1nc(-c2cccc(C(=O)O)c2)no1 ?
A. 223 to 225 °C

Q. Again, but for O=C(CCc1ccccc1)/C(=N\O)c1ccccc1
A. 129 to 130 °C

----------
Overview of reported melting point across a group of compounds:

                                   compound  observed_result
0                     O=C(O)c1cccc2c1OCCCO2      68 to 70 °C
1                       CC(=O)c1ccc(F)cc1Br      48 to 50 °C
2                      Cc1cc(C)c(C#N)c(O)n1    285 to 287 °C
3    CCC1NC(C(=O)O)CS1 (mixture of isomers)    158 to 162 °C
4  O=C(O)[C@@H]1Cc2ccccc2CN1C(=O)OCC1c2ccccc2-c2ccccc21    146 to 149 °C

Then there is this compound:
Q. Which melting point value belongs to CCCCCOc1ccc(O)cc1 ?
A. 46 to 49 °C
